Entries and their PGE2 EC50 with compound values follow.
Biological target: Prostaglandin E2 receptor EP2 subtype (Homo sapiens)
Assay: compounds shifting PGE2 potency at EP2 – cell-based, human EP2, PGE2 EC50 shift, dose response (AID 1421)
Conditions: EP2-expressing cells, PGE2 EC50 shift by compound; at 20 µM
The campaign covered roughly 1,300 compounds. About 140 (11%) were called active. The list is a sample of the results. Potency and affinity values are given separately.
endpoint_label: PGE2 EC50 with compound

{"columns": ["structure_string", "value"],
 "data": [
  ["COc1ccccc1CN(C)CC(=O)Nc1ccccc1-c1ccccc1", "0.72 nM (inactive)"],
  ["Cc1ccc(C)n1-n1cnc2scc(-c3cccs3)c2c1=O", "0.29 nM (inactive)"],
  ["Cc1ccc(S(=O)(=O)n2c3ccc(F)cc3c3nc(C)sc32)cc1", "0.2 nM (inactive)"],
  ["CN(/N=C/C=C/c1ccccc1)C1=NS(=O)(=O)c2ccccc21", "0.14 nM (inactive)"],
  ["CCCn1c(C)nc2c(c1=O)c1nc3ccccc3nc1n2CCC1=CCCCC1", "0.36 nM (inactive)"],
  ["Cc1ccccc1-n1c(Cn2c(=O)sc3ccccc32)nnc1SCC(=O)N1CCCC1", "0.82 nM (inactive)"],
  ["C=CCc1cc(C=O)cc(OC)c1OCc1ccc(Cl)cc1", "0.92 nM (inactive)"],
  ["Nc1cccc(OCc2nc(N)nc(N)c2-c2ccc(Cl)cc2)c1", "0.92 nM (inactive)"],
  ["CCOC(=O)c1c(N)sc(-c2ccccc2)c1C", "0.8 nM (inactive)"],
  ["CCOc1ccccc1C(=O)Nc1ccccc1-c1ccccc1", "0.2 nM (inactive)"],
  ["COc1ccc(Cl)cc1-n1c(C)ccc1C", "0.33 nM (inactive)"]
]}

* * *

Target: Prostaglandin E2 receptor EP2 subtype (Homo sapiens)
Test: compounds shifting PGE2 potency at EP2 – cell-based, human EP2, PGE2 EC50 shift, dose response (AID 1421)
Conditions: EP2-expressing cells, PGE2 EC50 shift by compound; at 20 µM
Hit rate of the full screen: of about 1,300 compounds, about 140 (11%) were called active. Only a sample is shown. Results with a measured potency or affinity are listed apart.
Entries and their PGE2 EC50 with compound values follow.
endpoint_label: PGE2 EC50 with compound

{"columns": ["molecule", "endpoint_label", "value"],
 "data": [
  ["CCN(CC)CCN1C(=O)c2cccc3cc(N)cc(c23)C1=O", "PGE2 EC50 with compound", "0.76 nM (inactive)"],
  ["Cc1noc(C)c1CSc1nc2ccccc2c(=O)n1-c1ccc(F)cc1F", "PGE2 EC50 with compound", "0.51 nM (inactive)"],
  ["Cc1ccc(S(=O)(=O)Nc2ccc(Cl)cc2C(=O)c2ccc(F)cc2)cc1", "PGE2 EC50 with compound", "1 nM (inactive)"],
  ["Cc1cc(SC(C)C(=O)O)nc2ccccc12 (stereo unspecified)", "PGE2 EC50 with compound", "1.16 nM (inactive)"],
  ["COC(=O)c1c(C)nc2ccccc2c1-c1ccccc1", "PGE2 EC50 with compound", "0.22 nM (inactive)"],
  ["Cc1cccc(NC(=O)CSc2ncnc3c2oc2ccccc23)c1", "PGE2 EC50 with compound", "8.27 nM (inactive)"]
]}
